Values were extracted from patent US20210371503A1.

Here the recorded EC50 is given for each entry.
target: T1, prefusion stabilized SARS-CoV-2 S ectodomain (SARS-CoV-2, UniProt P0DTC2 14-1208); assay: ELISA, coated S ectodomain [cont'd]
T1 construct: also called SARS-CoV-2 spike ectodomain; ectodomain of the spike (S) homotrimer of SARS-CoV-2
assay endpoint: EC50 (µg/mL)

| binder | assay endpoint | measurement |
| --- | --- | --- |
| MnC4t2p1_B3 (antibody, V domains shown) VH: EVQLVESGGHLVQPGRSLRLSCAASGFTFDDYAMHWVRQVPGKGLEWVSGISWNGGILDYADSVKGRFTISRDNAKNSLYLHMRSLRTDDTALYYCAKDLRRQDYYADWYFDLWGRGTLVTVSS VL: DIQMIQSPSSVSASVGDRVTITCRASQGISSWLAWYQQKPGKAPKLLIYAASTLLSAVPSRFSGSGSGTDFTLTISSLQPEDFATYYCQQGNSFPFTFGPGTIVDV | EC50 | 0.06 |
| MnC2t1p1_C5 (antibody, V domains shown) VH: EVQLVESGGGLVQPGGSLRLSCAASGFTVSSNYMSWVRQAPGKGLEWVSVIYSGGSTYYADSVKGRFTISRDNSKNTLYLQMNSLRAEDTAVYYCATGARFGESPFDYWGQGTLVTVSS VL: DIQMTQSPSSVSASVGDRVTITCRASQGISSWLAWYQQKPGKAPKLLIYAASSLQSGVPSRFSGSGSGTDFTLTISSLQPEDFATYYCQQANSFPGTFGQGTKVEIK | EC50 | 0.07 |
| MnC1t3p1_G9 (antibody, V domains shown) VH: EVQLLESGGGLVQPGGSLRLSCAASGFTFRNYAMTWVRQAPGKGLEWVSGISDSGDRTYNADSVKGRFSISRDNSKNTLHLQMNSLRAEDTAVYYCALASGSYFGGANYWGQGTLVTVSS VL: QAVVTQEPSLTVSPGGTVTLTCGSSTGPVTSDHYPYWFQQKPGQAPTTLIYDTNNKHSWTPARFSGSLLGGKAALTLSGAQPEDEAEYYCLLSYTGARVFGGGTKLTVL | EC50 | 0.33 |
| MnC2t1p1_A3 (antibody, V domains shown) VH: EVQLVESGGGLVQPGGSLRLSCAASGFTVSSNYMSWVRQAPGRGLEWVSVIYSGGSTFYADSVKGRFTISRDNSKNTLYLQMNSLRPEDTAVYYCATGARFGESPFDYWGQGTLVTVSS VL: DIQMTQSPSSVSASVGDRVTITCRASQGISSWLAWYQQKPGKAPKLLIYAASSLQSGVPSRFSGSGSGTDFTLTISSLQPEDFATYYCQQANSFPGTFGQGTKVEIK | EC50 | 0.05 |
